Recorded protein stability index by entry
Experiment: protein stability index of a GFP-peptide fusion (yeast GPS) (PSI 1-4); higher = more stable; sorted into four equal gates, so the index is relative within each strain
Conditions: pdr5∆
quantity: protein stability index

1) FGNSSPQLTFTHVANFM [YML103C/NUP188] | 3.03
2) ERESSGAKDAEKSGISK [RPC17] | 3.4
3) SQPSKKSFANHTEDEQI [SIR4] | 2.84
4) KRVTKVKRLLFTIRGFK [MTW1] | 2.52
5) KKINAKEKLIGWYHSGP [RPN8] | 3.13

* * *

Assay: protein stability index of a GFP-peptide fusion (yeast GPS) (PSI 1-4); higher = more stable; sorted into four equal gates, so the index is relative within each strain
Conditions: pdr5∆
Measured protein stability index, listed per entry.
quantity: protein stability index

1) LDEVDAALDITNVQRIA [SMC1] | 3.06
2) HTVFTSVNKNKRQAYAV [RPL4A] | 1.17
3) INYLALNAANYNIDANV [ECM29] | 2.76
4) MEADPSLHPLFEQFEKF [RPN9] | 2.84
5) DETKGFDDNDSGNNYND [MED2] | 3.07

Taken from the supplement of paper PMC9732359.
